assayed_system: EphA2 (Homo sapiens, UniProt P29317)
Construct: expressed in transfected cells; host or cells: yeast
Sequence (P29317 24-976): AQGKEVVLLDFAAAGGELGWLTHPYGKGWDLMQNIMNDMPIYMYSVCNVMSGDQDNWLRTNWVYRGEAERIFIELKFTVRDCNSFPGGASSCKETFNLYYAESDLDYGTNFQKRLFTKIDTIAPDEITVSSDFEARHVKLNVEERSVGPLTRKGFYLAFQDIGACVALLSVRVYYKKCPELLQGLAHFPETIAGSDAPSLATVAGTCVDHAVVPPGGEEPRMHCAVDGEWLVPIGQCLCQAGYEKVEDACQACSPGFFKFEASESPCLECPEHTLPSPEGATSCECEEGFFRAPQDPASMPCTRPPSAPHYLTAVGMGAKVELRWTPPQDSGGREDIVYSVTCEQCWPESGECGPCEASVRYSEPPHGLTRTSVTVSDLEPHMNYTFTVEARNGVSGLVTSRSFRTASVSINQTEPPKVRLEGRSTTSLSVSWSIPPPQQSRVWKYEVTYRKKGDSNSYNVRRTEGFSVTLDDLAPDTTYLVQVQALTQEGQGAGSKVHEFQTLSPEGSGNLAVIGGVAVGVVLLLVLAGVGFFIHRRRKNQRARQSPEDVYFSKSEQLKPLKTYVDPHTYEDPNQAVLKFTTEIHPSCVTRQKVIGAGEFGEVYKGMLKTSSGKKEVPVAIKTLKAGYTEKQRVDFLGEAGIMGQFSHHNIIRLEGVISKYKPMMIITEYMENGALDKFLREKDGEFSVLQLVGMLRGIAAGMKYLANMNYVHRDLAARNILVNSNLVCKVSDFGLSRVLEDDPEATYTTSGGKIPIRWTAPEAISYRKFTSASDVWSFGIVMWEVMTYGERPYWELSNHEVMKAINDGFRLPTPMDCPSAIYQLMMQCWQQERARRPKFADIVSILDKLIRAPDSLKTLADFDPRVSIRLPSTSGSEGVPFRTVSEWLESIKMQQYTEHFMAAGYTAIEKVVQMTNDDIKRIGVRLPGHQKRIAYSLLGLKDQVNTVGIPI
protocol_text: Yeast growth assay, specificity profiling
Assay type: cell-based
Design: key: “−” indicates no growth restoration i.e. no activity against the particular kinase; “+”, “++”, and “+++” indicate activity detected by restoration of growth, classified into three categories of potency; “+”, “++”, and “+++” indicate activity detected by restoration of growth, classified into three categories of potency; “+”, “++”, and “+++” indicate activity detected by restoration of growth, classified into three categories of potency
assay_context: 7 concentrations between 0.2 and 100 μM

{"given_smiles": "Cc1nccn2c(Nc3cccc(Cl)c3)c(-c3ccccc3)nc12", "EphA2 growth restoration": "−"}
{"given_smiles": "Fc1cccc(Nc2c(-c3ccccc3)nc3cnccn23)c1", "EphA2 growth restoration": "−"}
{"given_smiles": "COc1cccc(-c2nc3cnccn3c2Nc2cccc(Cl)c2)c1", "EphA2 growth restoration": "−"}

Where these numbers come from: patent US20070149535A1
